Origin of measurements: PubChem BioAssay

Entries and their measured fluorescence slope follow.
- TARGET_UNDER_TEST: Muscarinic acetylcholine receptor M4 (Homo sapiens)
- TEST: M4-linked GIRK flux change, two-sided – cell-based, HEK293 M4/GIRK, thallium flux, BTC-AM, M4 allosteric agonist project, primary screen (AID 625);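 further: thallium influx through GIRK channels coupled to M4 in HEK293 cells with BTC-AM dye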
- CONDITION_CONTEXT: at 10 µM, actives lie on both sides
Please state the value as a number alone, without comment.

-- ask Retrieve fluorescence slope measured for CSc1ccccc1NC(=O)c1noc2c1CCC2 and print it.
-- reply 0.00589

----------
- TEST: reduction of polyQ htt aggregates in cells – imaging, exon1htt(103Q)mCFP cells, high-content imaging, primary screen (AID 483);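 further: compound exposure lasted 3 days before fixation; percent of the per-plate median nuclei count of sample wells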
- CONDITION_CONTEXT: exon1htt(103Q)mCFP cell line, aggregate imaging, at 2 µM; measured here: cell count, toxicity
QUANTITY_KIND: nuclei count (%)
Note: unit % is implicit; provide only the numeric part.

Here is how some compounds turned out for nuclei count.
[[record]]
compound = "CCCS(=O)(=O)N1CCC(C(=O)N2CCCC2)CC1"
measured_result = 96.1

[[record]]
compound = "Cn1c(=O)c2c(nc(NCCCO)n2Cc2cccc(Br)c2)n(C)c1=O"
measured_result = 108

[[record]]
compound = "Cc1ccc(S(=O)(=O)NCC(=O)OCC(=O)Nc2ncc(Cl)cc2Cl)cc1"
measured_result = 115

[[record]]
compound = "COC(=O)C1=C(C)OC(N)=C(C#N)C1c1ccccc1 (stereo unspecified)"
measured_result = 114

[[record]]
compound = "CC1(C)Cc2noc(N)c2C(C)(C)N1OC(=O)c1ccccc1"
measured_result = 99


Next item in the queue.
-- ask Find the measured nuclei count of Cc1sc2ncnc(OCC(=O)N3CCN(S(=O)(=O)c4ccccc4)CC3)c2c1C and report it.
-- reply 90.7

----------
- TEST: inhibitors of TNFa-induced NFkB p65 translocation, primary screen, imaging, HUVEC, MLSMR starter and 10KST1 sets (AID 438);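 further: compound added about 3h40 before a 20 min TNFalpha stimulation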
- CONDITION_CONTEXT: HUVEC TNFa-induced p65 nuclear translocation; measured here: nuclei count (cytotoxicity indicator), at 2.08 µM
QUANTITY_KIND: cell count

Reference set (8 entries):
[[record]]
molecule = "O=S(=O)(c1ccc(OCC(O)CN2CCC(Cc3ccccc3)CC2)cc1)N1CCOCC1 (centres undefined)"
quantity_kind = "cell count"
measured_result = 730

[[record]]
molecule = "CCOc1ccc2[nH]cc(C(=O)N3CCN(CC)CC3)c(=O)c2c1"
quantity_kind = "cell count"
measured_result = 498

[[record]]
molecule = "CC(=O)NC(C)C(=O)OCc1ccc(Cl)cc1Cl (centres undefined)"
quantity_kind = "cell count"
measured_result = 478

[[record]]
molecule = "N#CCc1ccc(NC(=O)Nc2cccc(Cl)c2)cc1"
quantity_kind = "cell count"
measured_result = 321

[[record]]
molecule = "O=C(CSc1n[nH]c(=O)[nH]c1=O)c1ccccc1"
quantity_kind = "cell count"
measured_result = 486

[[record]]
molecule = "O=C(Nc1cccc(F)c1)c1cccc(S(=O)(=O)N2CCOCC2)c1"
quantity_kind = "cell count"
measured_result = 566

[[record]]
molecule = "CC1CCN(c2oc(-c3cccc4ccccc34)nc2C#N)CC1"
quantity_kind = "cell count"
measured_result = 610

[[record]]
molecule = "Cc1ccc(C(=O)OCC(=O)Nc2ccc3c(c2)OCO3)o1"
quantity_kind = "cell count"
measured_result = 429


Here's the next entry for you.
-- ask Provide only the value of recorded cell count for Cc1csc2nc(CSc3nc4ccccc4o3)c(Br)n12
-- reply 573

----------
- TEST: reduction of polyQ htt aggregates in cells – imaging, exon1htt(103Q)mCFP cells, high-content imaging, primary screen (AID 483);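 further: compound exposure lasted 3 days before fixation; percent of the per-plate median nuclei count of sample wells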
- CONDITION_CONTEXT: exon1htt(103Q)mCFP cell line, aggregate imaging, at 2 µM; measured here: cell count, toxicity
Recorded nuclei count for the following compounds
Please reply with the bare figure in % and do not write the unit itself.

Answered cases to consult:
[[record]]
compound = "COc1ccc(Nc2nc(OC)nc(N3CCN(c4ccc(OC)cc4)CC3)n2)cc1"
quantity_kind = "nuclei count"
measured_result = 93.5

[[record]]
compound = "CCc1nnc(NC(=O)c2ccc(S(=O)(=O)NCC(C)C)cc2)s1"
quantity_kind = "nuclei count"
measured_result = 100

[[record]]
compound = "O=C(Nc1nc(-c2ccccc2)cs1)C1CCCCN1S(=O)(=O)c1ccccc1 (stereo not given)"
quantity_kind = "nuclei count"
measured_result = 101

[[record]]
compound = "Cc1[nH]nc2c1C1(CCN(C(=O)c3ccccc3)CC1)C(C#N)=C(N)O2"
quantity_kind = "nuclei count"
measured_result = 74.8


Please turn your attention to the following entry.
-- ask Assign nuclei count to the following record: Cc1ccc(N(C(=O)c2ccncc2)C2C=CS(=O)(=O)C2)cc1 (stereo not given)
-- reply 114

----------
Items are presented alongside their recorded inhibition.
- TEST: endothelial E-selectin expression blockers – imaging, HUVEC, immunofluorescence, MLSMR starter and 10KST1 sets, primary screen (AID 487);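 further: signal is fraction of cell area covered by stained E-selectin grains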
- CONDITION_CONTEXT: HUVEC TNFalpha-induced E-selectin immunofluorescence imaging, at 2 µM; stronger effect = higher value
Response body: numeric value in %, unit text excluded.

Reference set, count: 4
[[record]]
molecule = "CC(=O)Nc1nc(-c2ccccc2)nc(C)c1C(C)=O"
measured_result = 32.4

[[record]]
molecule = "CC(=O)Oc1ccc(CCC(C)OC(C)=O)cc1 (stereo not given)"
measured_result = -0.1

[[record]]
molecule = "O=c1c2ccccc2nc(SCc2nc(-c3ccccc3)no2)n1-c1ccc(F)cc1"
measured_result = -58.2

[[record]]
molecule = "O=C(CS(=O)(=O)c1cn(Cc2ccc(Cl)cc2)c2ccccc12)N1CCOCC1"
measured_result = -8.5


-- ask Answer with the recorded inhibition for the molecule listed here: O=C(CSc1nc2ccccc2c(=O)n1CCC(=O)N1CCCCC1)NCc1ccccc1
-- reply 16.9

-- ask Please supply the value of reported inhibition for the item CCCN(CCC)C(=O)C1CCN(c2cc(C)nc3c(-c4ccc(OC)c(OC)c4)c(C)nn23)CC1
-- reply -68.7

-- ask Answer with the recorded inhibition for the molecule listed here: Cc1c(C(=O)Nc2nnc(C(F)(F)F)s2)oc2ccccc12
-- reply -57.7

-- ask Specify measured inhibition for O=C(Nc1ccccc1)N1C(=O)C2(OCCO2)c2ccccc21 .
-- reply -75.2

-- ask Name the recorded inhibition of the molecule listed here: COc1ccc(NC(=O)c2oc3ccc(S(=O)(=O)N4CCC5(CC4)OCCO5)cc3c2C)cc1
-- reply -77.8

-- ask Report inhibition, nothing else, for this molecule: CCn1c(SCc2nc(-c3cccs3)no2)nnc1-c1c[nH]c2ccccc12
-- reply -1.6

----------
- TEST: inhibitors of TNFa-induced NFkB p65 translocation, primary screen, imaging, HUVEC, MLSMR starter and 10KST1 sets (AID 438);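 further: compound added about 3h40 before a 20 min TNFalpha stimulation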
- CONDITION_CONTEXT: HUVEC TNFa-induced p65 nuclear translocation; measured here: nuclei count (cytotoxicity indicator), at 2.08 µM
Quick rule: cell count of at least 400 means Criterion met, below that means Criterion not met.

Use these answered entries as a reference point.
[[record]]
compound = "Cc1ccc(C)c2[nH]c(=O)c(CCNC(=O)c3ccc(S(=O)(=O)N(C)C)cc3)cc12"
class_assignment = "Criterion met"

[[record]]
compound = "CCSc1nnc(-c2ccc(OC)cc2)o1"
class_assignment = "Criterion met"

[[record]]
compound = "Cc1cccc(C(=O)N(C)c2nnc(-c3ccncc3)s2)c1"
class_assignment = "Criterion not met"


-- ask Entry COc1ccc(S(=O)(=O)Cc2ccc(C(=O)N3CCOCC3)o2)cc1 : is its cell count no less than 400?
-- reply Criterion met

-- ask Please indicate if the recorded cell count for O=c1nc(N2CCCC2)nc(Nc2ccccc2)[nH]1 meets or exceeds 400.
-- reply Criterion met

-- ask Decide: is the reported value of cell count for COC(=O)c1c(NC(=O)CCc2ccc(C)o2)sc(C)c1C equal to or greater than 400?
-- reply Criterion met

-- ask Can COc1ccc2[nH]c(=O)c(CN(Cc3cccs3)Cc3nnnn3C(C)(C)C)cc2c1 be said to have cell count at or above 400?
-- reply Criterion met

-- ask I'd appreciate it if you could say whether O=C(CSc1nnc(SCc2ccc(Cl)cc2)s1)N1CCN(C(=O)c2ccco2)CC1 has cell count at least equal to 400.
-- reply Criterion not met

-- ask Reported cell count reaches at least 400 for CCn1c(C)nc2cc(C(=O)OC(C(F)(F)C(F)F)C(F)(F)C(F)F)ccc21 ?
-- reply Criterion not met

----------
- TEST: blockers of RIG-like receptor reporter activation – cell-based, Sendai virus stimulus, luciferase, 10K MLSCN set, TLR/RLR signaling modifier project, primary screen (AID 602276);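 further: firefly luciferase from ISG56 promoter only with Renilla not read in this screen; 0% = Sendai virus plus DMSO and 100% = medium plus DMSO without virus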
- CONDITION_CONTEXT: HEK293 RL24 IRF3 luciferase reporter, at 10 µM, stronger effect = higher value
QUANTITY_KIND: inhibition (%)
Return type: number; implicit unit %.

[[record]]
molecule = "O=C(NCCCN1CCCC1=O)c1cccnc1"
unit_of_measure = "%"
measured_result = -11.4

[[record]]
molecule = "CCn1cc(C(=O)NCCC2=CCCCC2)c(=O)c2cc(S(=O)(=O)N(C)C)ccc21"
unit_of_measure = "%"
measured_result = 3.13

[[record]]
molecule = "CCC(=O)Nc1ccc(NC(=O)CSc2nnnn2C(C)C)cc1"
unit_of_measure = "%"
measured_result = 14.9

[[record]]
molecule = "CCn1c(C)nc2cc(C(=O)OC(C(F)(F)C(F)F)C(F)(F)C(F)F)ccc21"
unit_of_measure = "%"
measured_result = 7.52

[[record]]
molecule = "O=C(CCN1CCN(CCO)CC1)Nc1ccc(OCc2ccccc2)cc1"
unit_of_measure = "%"
measured_result = -11.3


Continue with the next molecule.
-- ask # return recorded inhibition for input Cc1c(NC(=O)c2cnn3c2NC(c2ccco2)CC3C(F)(F)F)c(=O)n(-c2ccccc2)n1C (stereo unspecified)
-- reply 15.2
